# System: Bcap37
# PROTOCOL_SUMMARY: Antiproliferative activity against human Bcap37 cells after 48 hrs by MTT assay
# Assay type: functional, cell-based
# STATED_CONDITIONS: Bcap37, 48 h
Overview of recorded IC50 for various compounds
Kindly answer with a numeric value in µM, unit omitted.

{"columns": ["COMPOUND", "IC50 (µM)"],
 "data": [
  ["COc1cccc2c1C(=O)c1c(O)c3c(c(O)c1C2=O)C[C@@](O)(C(=O)CO)C[C@@H]3O[C@H]1C[C@H](N)[C@H](O)[C@H](C)O1 [DOXORUBICIN]", 1.19]
]}

Turning now to a further record.
Give the value of IC50 reported for the following: O=C(CN1CCCCC1)N1N=C(c2ccccc2)CC1c1cc2ccccc2oc1=O (configuration not stated)
5.3
